- system: Regulator of G-protein signaling 16 (Homo sapiens) (UniProt O15492)
- method description: small molecules altering RGS protein interactions with GNAO1 – biochemical, multiplexed beads, flow cytometry, RGS4/7/8/16/19, primary screen (AID 1504);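 note: fluorescently labeled Galpha-o bound to GDP with aluminium fluoride binding biotinylated RGS beads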
- experimental parameters: multiplexed bead flow cytometry, measured here: RGS16 interaction, at 10 µM
This is one part of the list.
measured metric: RGS16–Galpha-o binding response (%)
Please reply with the bare figure in % and do not write the unit itself.

Past entries and their recorded results:
COCCNC(=S)N/N=C/c1c(C)[nH]c2ccccc12 | 153
O=C(Nc1cccc(F)c1)c1coc(=O)c(Br)c1 | 100
CCOC(=O)NNc1cc(C(F)(F)F)ccn1 | 148

Attention now turns to another entry.
[in] Which RGS16–Galpha-o binding response is reported with Regulator of G-protein signaling 16 (Homo sapiens) (UniProt O15492) for this entry: CCCC(=O)n1nc(-c2ccccc2)nc1N ?
[out] 14.9

====

- system: Beta-2 adrenergic receptor (Homo sapiens)
- method description: agonist-induced loss of surface beta2AR – cell-based, FAP fluorogen, flow cytometry, validation set, pilot screen (AID 504459);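 note: agonist-driven loss of surface beta2AR via internalization measured by FAP dye flow cytometry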
- experimental parameters: Am2.2-beta2AR cells, at 10 µM, stronger effect = higher value
measured metric: response (%)
Please reply with the bare figure in % and do not write the unit itself.

[in] Which response is reported with Beta-2 adrenergic receptor (Homo sapiens) for this entry: O=c1cc(-c2ccccc2)oc2cc(OCc3ccccc3)cc(O)c12 ?
[out] -12.6

[in] Which response is reported with Beta-2 adrenergic receptor (Homo sapiens) for this entry: COc1ccccc1OCC(O)COC(N)=O (configuration not stated) ?
[out] 1.55

[in] Which response is reported with Beta-2 adrenergic receptor (Homo sapiens) for this entry: CC(=O)SC1CC2=CC(=O)CCC2(C)C2CCC3(C)C(CCC34CCC(=O)O4)C12 (configuration not stated) ?
[out] -4.96

[in] Which response is reported with Beta-2 adrenergic receptor (Homo sapiens) for this entry: c1ccc(CC2=NCCN2)cc1 ?
[out] -7.37

[in] Which response is reported with Beta-2 adrenergic receptor (Homo sapiens) for this entry: COc1cc(OC)c(-c2nc3cnccc3n2C)cc1OC ?
[out] -4.1

[in] Which response is reported with Beta-2 adrenergic receptor (Homo sapiens) for this entry: Nc1cnn(C2OC(CO)C(O)C2O)c(=O)n1 (configuration not stated) ?
[out] -1.33

[in] Which response is reported with Beta-2 adrenergic receptor (Homo sapiens) for this entry: O=c1[nH]cnc2[nH]ncc12 ?
[out] -2.08

====

- system: Cell division control protein 42 homolog (Homo sapiens)
- method description: inhibition of fluorescent GTP binding to wildtype Cdc42 – biochemical, multiplex bead flow cytometry, Bodipy-FL-GTP, dose response (AID 1334)
- experimental parameters: bead-based flow cytometry, Bodipy-FL-GTP binding to GST-Cdc42; at 100 µM (top of the series) unless noted
Entries with a potency or affinity are not part of this list.
Categorize each record by its fluorescence, percent of control (lower = inhibition) using L (below 50%), M (50% to below 70%), H (70% or more)

COc1c(C)cccc1C(=O)NC(=S)Nc1ccc2c(c1)Cc1ccccc1-2 | H
CCC(Oc1ccc2ccccc2c1)C(=O)O (stereo unspecified) | H
O=[N+]([O-])c1cccc(S(=O)(=O)N2CCCC2)c1 | M
O=C1/C(=C/c2ccc(N3CCOCC3)o2)SC(=Nc2ccccc2)N1CCc1c[nH]c2ccccc12 | H
COc1ccc(CCNc2cc(=O)[nH]c(N)n2)cc1 | L
Cc1ccc(CS(=O)(=O)c2ccccc2-c2nnc(-c3ccc(Cl)cc3)o2)cc1 | H

[in] Pick a category. Item: COc1ccc(OC)c(C(C(=O)NCc2ccco2)N(C(=O)Cn2nnc3ccccc32)C2CC2)c1 (stereo unspecified)
[out] L

[in] Pick a category. Item: COc1ccccc1OCCn1cc(C(=O)O)c2ccc(C)cc21
[out] L

[in] Pick a category. Item: CCOC(=O)c1ccc(Nc2nc(C(=O)OCC)nc3ccccc23)cc1
[out] M

====

This listing pairs compounds with measured superoxide response (% of plate).
- method description: calorie-restriction mimetic ROS inhibitors, yeast – validation compound set, pilot screen (AID 2706);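 note: yeast exposed to compound for one week at 30 degrees C before staining; 100% = mean of all compound wells on the same plate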
- experimental parameters: S. cerevisiae aging, superoxide DHE fluorescence; at 10 µM; stronger effect = lower value
Please reply with the bare figure in % and do not write the unit itself.

Past entries and their recorded results:
OCCN(Cc1nc(-c2ccc3c(c2)OCO3)no1)Cc1cccs1 | 88.2
O=C(NCc1ccc(N2CCCC2=O)cc1)c1ccc(F)cc1 | 101
Cc1ccc(S(=O)(=O)NC(C(=O)Oc2cc3oc(=O)cc(C)c3cc2Cl)C(C)C)cc1 (stereo not given) | 98.7

[in] State the recorded superoxide response (% of plate) for this entry: Fc1ccc(-n2cc(CNCCc3ccccn3)c(-c3ccccc3Cl)n2)cc1
[out] 98.4

[in] State the recorded superoxide response (% of plate) for this entry: CC12CN3CC(C)(CN(C1)C3c1ccc([N+](=O)[O-])o1)C2 (stereo not given)
[out] 111

====

- system: Beta-adrenergic receptor kinase 1 (Homo sapiens) (UniProt P25098)
- Sequence (P25098 whole entry, looked up): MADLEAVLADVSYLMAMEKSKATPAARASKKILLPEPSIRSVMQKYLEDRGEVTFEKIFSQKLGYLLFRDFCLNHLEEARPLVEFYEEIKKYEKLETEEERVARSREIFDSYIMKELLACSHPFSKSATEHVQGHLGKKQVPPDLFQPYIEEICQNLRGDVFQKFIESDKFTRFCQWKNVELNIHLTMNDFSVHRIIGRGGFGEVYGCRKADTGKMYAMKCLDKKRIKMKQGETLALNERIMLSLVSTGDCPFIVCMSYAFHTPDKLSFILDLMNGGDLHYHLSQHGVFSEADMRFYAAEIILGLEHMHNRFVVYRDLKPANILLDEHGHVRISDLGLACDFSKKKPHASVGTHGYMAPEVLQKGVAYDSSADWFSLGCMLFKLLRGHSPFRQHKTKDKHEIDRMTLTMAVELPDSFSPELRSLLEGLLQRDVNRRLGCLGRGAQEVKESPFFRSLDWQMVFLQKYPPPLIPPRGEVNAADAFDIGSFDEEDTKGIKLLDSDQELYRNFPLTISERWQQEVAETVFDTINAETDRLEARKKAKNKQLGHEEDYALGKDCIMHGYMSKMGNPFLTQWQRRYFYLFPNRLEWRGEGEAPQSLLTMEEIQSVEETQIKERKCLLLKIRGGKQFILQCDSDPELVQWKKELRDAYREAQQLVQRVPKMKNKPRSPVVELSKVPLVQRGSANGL
- method description: GRK2 binders displacing RNA aptamer, biochemical, validation, human GRK2, bead flow cytometry (AID 488806)
- experimental parameters: bead-bound GRK2, FAM-aptamer displacement, at 10 µM, stronger effect = higher value
This listing pairs compounds with measured aptamer binding inhibition.
Please reply with the bare figure in % and do not write the unit itself.

CC(C)OC(=O)c1ccc(NC(=O)c2cncc(Br)c2)cc1 | -1
COc1cc(SC)ccc1C(=O)NC(C)C | -1
CC(C)CC(=O)NC(NC(=O)CC(C)C)c1cccc([N+](=O)[O-])c1 | 19

[in] State the recorded aptamer binding inhibition for this entry: OCCN(CCO)c1nc(N2CCCCC2)c2nc(N(CCO)CCO)nc(N3CCCCC3)c2n1
[out] 3

[in] State the recorded aptamer binding inhibition for this entry: CC(=O)Nc1c(I)c(NC(C)=O)c(I)c(C(=O)O)c1I
[out] -1

[in] State the recorded aptamer binding inhibition for this entry: COc1ccc(CNCCC2(C(C)C)CCOC(C)(C)C2)cc1 (centres undefined)
[out] 3

[in] State the recorded aptamer binding inhibition for this entry: COCCN(CCOC)Cc1c(C)[nH]c2c(C)c(C)ccc2c1=O
[out] 0

[in] State the recorded aptamer binding inhibition for this entry: CN(C)CCC(c1ccc(Cl)cc1)c1ccccn1 (centres undefined)
[out] -7

[in] State the recorded aptamer binding inhibition for this entry: CN=C(NC#N)NCCSCc1nc[nH]c1C
[out] -1

====

- method description: TOR pathway LAP4-GFP level changes – S. cerevisiae, multiplex flow cytometry, primary screen (AID 1873)
- experimental parameters: S. cerevisiae LAP4-GFP expression, 3 h, at 10 µM
Records with an inconclusive call do not appear. Calls of active or inactive are those of the source.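 How the source made its calls: active means GFP signal, as percent of the solvent control, above the screen mean plus 3 SD, about 149; inconclusive means no reading because the compound's own fluorescence upset strain identification; inactive means the rest.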
Hello, when you answer, please use one of the following outcomes: Yes (active), No (inactive)

Previously resolved entries follow.
Cc1ccsc1C1NC(=O)c2ccccc2N1 (configuration not stated) | No
COc1ccc(OCc2cccc(C(=O)NN)c2)cc1 | No
Cc1oc2c(O)c(O)ccc2c(=O)c1-c1ccccc1 | No
O=C(NC1CCCCC1)N1CCc2[nH]c3ccccc3c2C1 | No
O=C(OCC(O)C(O)COC(=O)c1ccccc1)c1ccccc1 (configuration not stated) | No
O=C(Nc1nc2ccccc2s1)c1ccc(F)cc1 | No
COc1cc2nc(-c3ccccc3)nc(N3CCCC3)c2cc1OC | No
CC(=O)NC1C(OCc2ccccc2)OC(COC(C)=O)C(OC(C)=O)C1OC(C)=O (configuration not stated) | No
CC(C)Cc1ccc(C(C)C(=O)O)cc1 (configuration not stated) | No
COc1cc2c(cc1OC)C(c1ccccc1)=NCC2 | No

[in] Tell me the recorded outcome of this test for c1cnc2c(c1)ccc1cccnc12 .
[out] Yes

[in] Tell me the recorded outcome of this test for NS(=O)(=O)c1cc2c(cc1Cl)NC(C1C[C@H]3C=C[C@@H]1C3)NS2(=O)=O (some centres not stated) .
[out] No

====

This listing pairs compounds with measured aptamer binding inhibition.
- system: Beta-adrenergic receptor kinase 1 (Homo sapiens) (UniProt P25098)
- method description: GRK2 binders displacing RNA aptamer, biochemical, validation, human GRK2, bead flow cytometry (AID 488806)
- experimental parameters: bead-bound GRK2, FAM-aptamer displacement, at 10 µM, stronger effect = higher value
Please reply with the bare figure in % and do not write the unit itself.

Past entries and their recorded results:
CC(=O)[C@H]1CC[C@H]2[C@@H]3CCC4=CC(=O)CC[C@]4(C)[C@H]3[C@H](O)C[C@]12C | 3
C[C@]12CCC(=O)C=C1CC[C@@H]1[C@@H]2[C@@H](O)C[C@@]2(C)[C@H]1CC[C@]2(O)C(=O)CO | -2
CC(C)C(=O)Nc1c(O)c2ccccc2[nH]c1=O | 0
O=C(CS(=O)(=O)c1ccccc1)c1ccc2c(c1)OCCO2 | 4

Attention now turns to another entry.
[in] State the recorded aptamer binding inhibition for this entry: O=S(=O)(CCc1nc2ccccc2[nH]1)c1ccc(Cl)cc1
[out] -2
